Potency listing for selected compounds.
Protocol text: Cellular viability qHTS for adrenocortical cancer (ACC) cell line SW-13 (AID 1963989); further: potency means the concentration at half of the fitted maximal effect; nearly all actives have a fitted effect of over 65% in size
Run parameters: SW-13 ACC cells viability, CellTiter-Glo, 48 h
Results filed as inconclusive are left out. Activity calls are given as the source filed them. The call rests on the fitted dose curve; in most records, active means well fitted cell-killing curve with a large enough effect; inconclusive means small, poorly fitted or top-dose-only effect; inactive means flat fitted curve, though single readings scatter.

>  <Smiles input>
Nc1ncnc(Nc2ccc(OCc3ccccc3)c(Cl)c2)c1/C=N/OCCN1CCOCC1

>  <Potency>
17.8 µM (active)

$$$$
>  <Smiles input>
c1cc(-c2cnn3cc(-c4ccc(OCCN5CCCCC5)cc4)cnc23)ccn1

>  <Potency>
11.2 µM (active)

$$$$
>  <Smiles input>
COc1cc(C(N)=O)ccc1NC(=O)[C@@H]1N[C@@H](CC(C)(C)C)[C@@]2(C(=O)Nc3cc(Cl)ccc32)[C@H]1c1cccc(Cl)c1F

>  <Potency>
15.8 µM (active)

$$$$
>  <Smiles input>
CC(C)c1cc(CNc2nc(Nc3cc(C4CC4)[nH]n3)cc(N3CCN(C)CC3)n2)on1

>  <Potency>
3.98 µM (active)

$$$$
>  <Smiles input>
CCOc1cc(N2CCC(O)CC2)ccc1Nc1ncc2c(n1)N(C)c1ccccc1C(=O)N2C

>  <Potency>
15.8 µM (active)

$$$$

Ask | Please report the recorded Potency for C[C@@H](O[C@H]1OCCN(Cc2n[nH]c(=O)[nH]2)[C@H]1c1ccc(F)cc1)c1cc(C(F)(F)F)cc(C(F)(F)F)c1 .
Reply | 18.4 µM (active)

Ask | Also CS(=O)(=O)N1CCN(Cc2cc3nc(-c4cccc5[nH]ncc45)nc(N4CCOCC4)c3s2)CC1 ?
Reply | 17.8 µM (active)

Ask | What about this compound? Cc1cn(CCN2CCN(c3ccccc3-c3cc(C#N)cc(C(=O)NCCCN4CCCC4)c3)CC2)c2ccccc12
Reply | 22.4 µM (active)

----------
Protocol text: Cellular viability qHTS for adrenocortical cancer (ACC) cell line NCI-H295R (AID 1963990); further: nearly all actives have a fitted effect of over 60% in size
Run parameters: CellTiter-Glo ATP luminescence, 48 h; series mostly up to 46.1 µM
Inconclusive results are not listed. Active and inactive are the calls of the source. Calls come from the whole dose curve; as a rule, active = well fitted cell-killing curve with a large enough effect; inconclusive = small, poorly fitted or top-dose-only effect; inactive = flat fitted curve, though single readings scatter.
The categories you may choose from are active, inactive

Here are 5 compounds together with their reported answers.
>  <Compound>
FC(F)(F)C(Cl)Br (stereo unspecified)

>  <Assigned class>
inactive

$$$$
>  <Compound>
FC(F)c1nc2ccccc2n1-c1nc(N2CCOCC2)nc(N2CCOCC2)n1

>  <Assigned class>
active

$$$$
>  <Compound>
N#Cc1ccc(C(c2ccc(C#N)cc2)n2cncn2)cc1

>  <Assigned class>
inactive

$$$$
>  <Compound>
CN=C(NC#N)NCCSCc1nc[nH]c1C

>  <Assigned class>
inactive

$$$$
>  <Compound>
c1cncc(CN2CCC(n3ncc4c(N5CCOCC5)nc(-c5ccc6[nH]ccc6c5)nc43)CC2)c1

>  <Assigned class>
active

$$$$

Ask | What did the test return for O=C(O)c1cc(-c2ccccc2)nc2ccccc12 ?
Reply | inactive

----------
Protocol text: Cellular viability qHTS for adrenocortical cancer (ACC) cell line NCI-H295R (AID 1963990); further: nearly all actives have a fitted effect of over 60% in size
Run parameters: CellTiter-Glo ATP luminescence, 48 h; series mostly up to 46.1 µM
Results filed as inconclusive are left out. Calls of active or inactive are those of the source. Calls come from the whole dose curve; as a rule, active = well fitted cell-killing curve with a large enough effect; inconclusive = small, poorly fitted or top-dose-only effect; inactive = flat fitted curve, though single readings scatter.
The reply should name one outcome from 1 (yes) (active), 0 (no) (inactive)

>  <Smiles input>
Cc1ccccc1N=Nc1ccc(N=Nc2c(O)ccc3ccccc23)c(C)c1

>  <Assigned class>
0 (no)

$$$$
>  <Smiles input>
COc1ccc(S(=O)(=O)Nc2cc(-c3c(O)ccc4ccccc34)c(O)c3ccccc23)cc1

>  <Assigned class>
1 (yes)

$$$$
>  <Smiles input>
CCN[C@H]1CN(CCCOC)S(=O)(=O)c2sc(S(N)(=O)=O)cc21

>  <Assigned class>
0 (no)

$$$$

Ask | State the result this test recorded for COC(=O)Nc1nc2ccc(C(=O)C3CC3)cc2[nH]1 .
Reply | 1 (yes)

Ask | Similarly, CCCc1nc(C)c2c(=O)[nH]c(-c3cc(S(=O)(=O)N4CCN(CC)CC4)ccc3OCC)nn12 ?
Reply | 0 (no)

Entry source: PubChem BioAssay (NCATS)
